- System: TRPC4 (mouse), co-expressed with 5HT1a in HEK293
- method_description: enhancement of serotonin-evoked TRPC4 response – cell-based, second counter screen, HEK293 TRPC4/5HT1a, Fluo-4, counter-screen for TRPC4 potentiator project, confirmation (AID 434979)
- condition_summary: Fluo-4 calcium flux, at 10 µM, serotonin added at its EC20 dose
Calls of active or inactive are those of the source.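 The calls were made as follows: active = signal rise over 3 SD above mean of control wells given weak agonist, in both repeats and first screen; inactive = the rest.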
Outcome codes: active, inactive

molecule	target_entity	qualitative_label
O=S(=O)(Nc1ccc(S(=O)(=O)Nc2cccc3ccccc23)cc1)c1ccccc1	TRPC4 (mouse), co-expressed with 5HT1a in HEK293	inactive
CN(C)CCOc1ccc2ccccc2c1	TRPC4 (mouse), co-expressed with 5HT1a in HEK293	active
Cc1cc(C)nc(NNS(=O)(=O)c2ccc(F)c(Cl)c2)n1	TRPC4 (mouse), co-expressed with 5HT1a in HEK293	active
Cc1ccc(S(=O)(=O)Nc2ccc(N=Nc3ccc(O)cc3)cc2)cc1	TRPC4 (mouse), co-expressed with 5HT1a in HEK293	inactive
CSc1ncccc1C(=O)OCC(=O)N(CC(C)C)c1c(N)n(Cc2ccccc2)c(=O)[nH]c1=O	TRPC4 (mouse), co-expressed with 5HT1a in HEK293	inactive
Cc1oc(-c2ccc(Cl)cc2)nc1CS(=O)CC(=O)NCCCN(C)C1CCCCC1 (stereo unspecified)	TRPC4 (mouse), co-expressed with 5HT1a in HEK293	inactive
CN(C)C(CNC(=O)CCS(=O)(=O)c1ccccc1)c1ccccc1 (stereo unspecified)	TRPC4 (mouse), co-expressed with 5HT1a in HEK293	inactive
CN(C)C(CNC(=O)c1cccc(C(F)(F)F)c1)c1ccco1 (stereo unspecified)	TRPC4 (mouse), co-expressed with 5HT1a in HEK293	inactive
CC(OCC(O)CN(C)CCOc1ccccc1)c1ccc(Cl)cc1 (stereo unspecified)	TRPC4 (mouse), co-expressed with 5HT1a in HEK293	inactive
COc1ccc(Nc2nc(N)c3ccccc3n2)c(OC)c1	TRPC4 (mouse), co-expressed with 5HT1a in HEK293	inactive
OCC1(CCc2ccccc2)CCN(Cc2cccn2-c2cccnc2)CC1	TRPC4 (mouse), co-expressed with 5HT1a in HEK293	inactive

====

- Test system: TRPC4 (transient receptor potential cation channel C4 beta), mouse
- method_description: potentiation of DAMGO EC20 TRPC4 response – cell-based, second round, Fluo-4, HEK293 TRPC4beta/mu-opioid, 1 µM, confirmation (AID 2554)
- condition_summary: DAMGO EC20, Fluo-4 calcium flux, at 1 µM; stronger effect = higher value
Active and inactive are the calls of the source.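 How the source made its calls: active means primary screen hit whose fluorescence ratio, in both repeats, exceeds the weak agonist control mean by 3 SD; inactive means the rest.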
property_name: potentiation

compound	property_name	test_value
CC1(C)CN=c2s/c(=C\c3ccc(Cl)cc3)c(=O)n2C1	potentiation	inactive
Cc1nc2ccccc2n1CCOc1ccc(F)cc1	potentiation	inactive
O=C(CN1CCN(c2ncc(C(F)(F)F)cc2Cl)CC1)N1CCN(c2ncc(C(F)(F)F)cc2Cl)CC1	potentiation	inactive
Cc1ccccc1C(=O)NC1CC2CCC(C1)N2Cc1ccccc1 (stereo unspecified)	potentiation	inactive
CCOC(=O)C1CCN(c2nc3ccccc3nc2C(C#N)C(=O)OCCOC)CC1 (stereo unspecified)	potentiation	inactive
Cc1ccc(S(=O)(=O)N2CCC(N3CCN(C)CC3)CC2)cc1Cl	potentiation	12% (active)

====

- System: TRPC4 (mouse), co-expressed with 5HT1a in HEK293
- method_description: enhancement of serotonin-evoked TRPC4 response – cell-based, second counter screen, HEK293 TRPC4/5HT1a, Fluo-4, counter-screen for TRPC4 potentiator project, confirmation (AID 434979)
- condition_summary: Fluo-4 calcium flux, at 10 µM, serotonin added at its EC20 dose
Activity calls are given as the source filed them.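 How the source made its calls: active means signal rise over 3 SD above mean of control wells given weak agonist, in both repeats and first screen; inactive means the rest.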
Outcome codes: true (active), false (inactive)

molecule	qualitative_label
Cc1ccc(NC(=O)NCC(c2ccccc2)N(C)C)cc1 (stereo not drawn)	false
CCOC(=O)c1ccc(N=C2C(=S)N(c3ccc(C(=O)OCC)cc3)C(=N)N2/N=C/c2ccccc2)cc1	false
O=S(=O)(c1ccc(Oc2ccc(Br)cc2)cc1)N1CCOCC1	false
OCCNCc1cc(Br)ccc1OCc1ccc(Cl)cc1Cl	false
Cc1cccc(C)c1N1CCc2cn[nH]c21	false
CCOc1ccccc1N(C(=O)c1snc(C(N)=O)c1N)C(C(=O)NCc1ccccc1)c1ccc(O)cc1 (stereo not drawn)	false
O=S(=O)(c1ccccc1)N1CCN(C/C=C/c2ccccc2)CC1	false
O=C(CN1CCCCC1)N=Nc1c(O)[nH]c2ccccc12	false
Cn1c(-c2ccc(F)cc2)cnc1NCc1ccc(F)cc1F	false
O=c1c2cc(Br)ccc2nc(-c2cccc(Cl)c2)n1O	false
Cc1sc2ncnc(NCC(c3ccccc3)N(C)C)c2c1C (stereo not drawn)	false
CN1CCN(S(=O)(=O)c2ccc(Br)c3ccccc23)CC1	true
Cc1csc2c(N3CCN(C(=O)Nc4ccc(Cl)c(Cl)c4)CC3)ncnc12	false
COc1cccc(/C=C2\SC(=S)N(NS(=O)(=O)c3ccc(C)cc3)C2=O)c1OC	false
O=C(COc1cc(Cl)c(Cl)cc1Cl)NCCc1ccccn1	false
Cc1ccc(-c2csc(NC(=O)C3CC=CCC3C(=O)O)c2C(=O)OC(C)C)cc1 (stereo not drawn)	false
CCc1ccc(OCc2ccc(C(=O)NCc3ccccn3)o2)cc1	false
CCCCCn1c2c(c(=N)c3ccccc31)CCC2	false
CCN(CC)c1ncnc2scc(C3COc4ccccc4O3)c12 (stereo not drawn)	false
CCCn1nc(C(=O)NC2CCCc3ccccc32)c2ccccc2c1=O (stereo not drawn)	true
COC(=O)[C@H](Cc1ccccc1)NC(=O)c1ccc2ccccc2n1	true
Cc1ccc(O)c(Sc2cc(C)ccc2O)c1	false
CCN1CCN(c2ccc(S(=O)(=O)N3CCCCC3)cc2NC(=O)c2cccc(OC(F)F)c2)CC1	true

====

- method_description: nonspecific calcium rise without TRPC4 – cell-based, HEK293 mu-opioid receptor line, counter-screen for TRPC4 activator project, confirmation (AID 449723);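 also: counter screen cells carry the mu-opioid receptor alone and lack TRPC4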
- condition_summary: HEK293 mu-opioid cells, Fluo-4 calcium fluorescence, at 10 µM
Active and inactive are the calls of the source.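 Rule for the calls: active = hit in primary screen, with calcium signal over 5 SD above buffer well mean in both duplicates; inactive = the rest.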
Outcome codes: class 1 for active, class 0 for inactive

compound	qualitative_label
O=C1COc2ccc(N3C(=O)C=CC3=O)cc2N1	class 0
O=c1c2ccccc2nc(COc2ccccc2)n1/N=C/c1cc([N+](=O)[O-])ccc1O	class 0
COC(=O)c1ccc(Nc2cc(C)nc3ccccc23)cc1	class 0
CCOC(=O)C1(Cc2cccc(F)c2)CCN(Cc2cnn(CC)c2C)CC1	class 0
CC(C)C(NC(=O)c1ccc(C(C)(C)C)cc1)C(=O)NCC(c1ccccc1)N(C)C (stereo unspecified)	class 0
CC(C)NS(=O)(=O)c1ccc(NC(=O)C(C)Oc2ccc(C(=O)c3ccccc3)cc2)cc1 (stereo unspecified)	class 0
COc1ccc(Nc2cc(C)nc3ccccc23)cc1	class 0
O=C(Nc1ccc(F)cc1)N1CCN2C(=O)c3ccccc3C12c1ccccc1 (stereo unspecified)	class 0
CN1CCCN(Cc2cccc3ccccc23)CC1	class 0
NC(N)=NN=C1CCCCCCCCCCC1	class 1
Cc1cc(C)nc(NNS(=O)(=O)c2ccc(F)c(Cl)c2)n1	class 0
Cc1cc(OCCN2CCCC2)ccc1[N+](=O)[O-]	class 0
Clc1ccc(COc2ccccc2CNCc2cccnc2)cc1	class 0
N=c1n(Cc2ccccc2)c2ccccc2n1CC(O)COc1ccccc1 (stereo unspecified)	class 0
CCC(O)(c1ccc(OC)cc1)C(CN1CCOCC1)c1ccccc1 (stereo unspecified)	class 0
Cc1cc([N+](=O)[O-])ccc1NCc1ccco1	class 0
CCN(CC)CCN(C(=O)c1ccccc1OC)c1nc2ccc(F)cc2s1	class 0
O=C(O)c1ccc(N2CCN(C(c3ccccc3)c3ccccc3)CC2)c([N+](=O)[O-])c1	class 0
CC(C)C(=O)N1CCN(c2nc(-c3ccccc3)c3c(c2C#N)CCCC3)CC1	class 0
CCOC(=O)CC(NC(=O)c1cc2cc(Cl)cc(Cl)c2oc1=O)c1cccc([N+](=O)[O-])c1 (stereo unspecified)	class 0
O=C(NC1CCCCC1)N1CCN(C(c2ccccc2)c2ccccc2)CC1	class 0
CCc1cc(OCCN(C)C)ccc1Cl	class 0
Cc1ccc(NC(=O)CNc2ccccc2CN(C)C2CCCCC2)cc1	class 0
CCOc1ccc(-n2cnnn2)cc1S(=O)(=O)NCc1ccccc1	class 0
CSc1ccc2nnc(-c3cccc(F)c3)n2n1	class 0
CCN(CC)CCCNC(=O)c1cc2c(-c3ccc(Cl)cc3)nn(C)c2s1	class 0
CC(NCCC(Cc1ccccc1)c1ccco1)c1ccccc1 (stereo unspecified)	class 0
c1ccc(-c2cnc(SCCN3CCOCC3)n2CC2CCCO2)cc1 (stereo unspecified)	class 0
O=C(/C=C/c1ccccc1Cl)N(c1ccccn1)C1CCCCC1	class 0
COc1cc(CN(C)CC2CCCN(CCc3ccccc3F)C2)cc(Cl)c1OC (stereo unspecified)	class 0
O=C(Nc1cccc(C(F)(F)F)c1)c1cccc(NS(=O)(=O)c2ccc(O)c(C(=O)O)c2)c1	class 0
COc1ccc(C(CNC(=O)Cc2cccs2)N(C)C)cc1 (stereo unspecified)	class 0
CCn1c(=O)c(C(=O)NNC(=O)c2ccccc2F)c(O)c2ccccc21	class 1
Cc1cccc(NC(=O)CNC(=O)CN2C(=O)NC3(CCCCC3C)C2=O)c1C (stereo unspecified)	class 0
Cn1c(SCCOc2ccccc2F)nc2ccccc2c1=O	class 0
CCOC(=O)C(CCCCCOc1ccc([N+](=O)[O-])cc1)C(=O)OCC	class 0
Cc1cccn2c(=O)c(/C=N/O)c(N3CCCC3)nc12	class 0
COc1ccccc1NC(=O)CSc1n[nH]c(-c2ccccn2)n1	class 0
CCC1CCCCN1Cc1nc2c(c(=O)n(C)c(=O)n2C)n1Cc1ccccc1 (stereo unspecified)	class 0
O=C(CN1CCN(c2ncc(C(F)(F)F)cc2Cl)CC1)N1CCN(c2ncc(C(F)(F)F)cc2Cl)CC1	class 0
Cc1cccn2cc(-c3c[nH]c4ccccc34)nc12	class 0
Fc1ccccc1COc1ccc(Br)cc1CNCC1CCCO1 (stereo unspecified)	class 0
CN1CCN(Cc2cn[nH]c2-c2ccc(F)cc2F)[C@@H](c2ccccc2)C1	class 0
CCc1nc2ccccc2n1Cc1ccccc1F	class 0
Cc1cc(C)c(C)c(OCCCOc2cccc3cccnc23)c1	class 0
Oc1c(Br)cc(Br)c(/C=N/n2c(-c3ccccc3)n[nH]c2=S)c1Br	class 0

Provenance of the data: PubChem BioAssay
